# measured.on: full-length human Cal1 (Homo sapiens (Human))
# Sequence (P07384 whole entry): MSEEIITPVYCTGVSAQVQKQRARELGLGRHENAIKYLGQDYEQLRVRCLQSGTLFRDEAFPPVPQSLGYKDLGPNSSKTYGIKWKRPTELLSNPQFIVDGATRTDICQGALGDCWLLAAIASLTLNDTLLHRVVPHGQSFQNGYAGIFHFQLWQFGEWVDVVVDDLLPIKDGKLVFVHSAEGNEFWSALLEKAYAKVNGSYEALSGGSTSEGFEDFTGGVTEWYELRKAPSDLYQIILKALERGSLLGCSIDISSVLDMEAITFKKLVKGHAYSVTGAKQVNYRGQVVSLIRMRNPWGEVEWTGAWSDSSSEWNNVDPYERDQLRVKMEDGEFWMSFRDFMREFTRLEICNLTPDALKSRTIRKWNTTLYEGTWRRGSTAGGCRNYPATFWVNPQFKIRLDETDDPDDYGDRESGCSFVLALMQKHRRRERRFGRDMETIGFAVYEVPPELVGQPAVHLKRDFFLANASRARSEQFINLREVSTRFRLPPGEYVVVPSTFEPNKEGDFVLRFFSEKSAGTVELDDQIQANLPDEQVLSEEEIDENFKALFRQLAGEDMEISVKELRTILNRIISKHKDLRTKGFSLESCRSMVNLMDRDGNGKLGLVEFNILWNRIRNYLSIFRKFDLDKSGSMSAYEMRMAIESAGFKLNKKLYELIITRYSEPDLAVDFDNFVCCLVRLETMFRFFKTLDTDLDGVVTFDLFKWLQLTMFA
# Sequence (P04632 whole entry partner): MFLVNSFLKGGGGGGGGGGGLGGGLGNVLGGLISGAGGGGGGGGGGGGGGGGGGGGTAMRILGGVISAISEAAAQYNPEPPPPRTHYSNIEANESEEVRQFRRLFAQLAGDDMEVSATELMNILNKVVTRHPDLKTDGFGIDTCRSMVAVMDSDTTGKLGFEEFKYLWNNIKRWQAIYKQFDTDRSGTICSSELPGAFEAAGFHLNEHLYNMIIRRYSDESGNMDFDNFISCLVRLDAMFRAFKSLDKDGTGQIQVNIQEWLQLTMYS
# test.description: Calpain inhibition FRET assay
# Format: biochemical
# experimental.setup: Table 3, 20 min incubation, FRET substrate
readout.name: pIC50
Remember, pIC50 is on a log scale: it is -log10 of the molar concentration.

INSERT INTO measurements (compound, readout_value) VALUES
  ('C#Cc1ccc(-c2csc(NC(=O)[C@H](Cc3cscn3)NC(=O)[C@H]3O[C@@H]3C(=O)O)n2)cc1', 7.00),
  ('O=C(NCc1cn(-c2ccc([N+](=O)[O-])cc2)nn1)[C@H](Cc1cscn1)NC(=O)[C@H]1O[C@@H]1C(=O)O', 6.52);

Exercise: Request body: readout pIC50, system full-length human Cal1 (Homo sapiens (Human)), query CC(C)C[C@H](NC(=O)[C@H]1O[C@@H]1C(=O)O)C(=O)Nc1c(F)cccc1F [Compound 23a] . Return the value.
Solution: 7.00

* * *

# measured.on: Full length porcine calpain (Sus scrofa (Pig), UniProt P35750)
# Sequence (P35750 whole entry): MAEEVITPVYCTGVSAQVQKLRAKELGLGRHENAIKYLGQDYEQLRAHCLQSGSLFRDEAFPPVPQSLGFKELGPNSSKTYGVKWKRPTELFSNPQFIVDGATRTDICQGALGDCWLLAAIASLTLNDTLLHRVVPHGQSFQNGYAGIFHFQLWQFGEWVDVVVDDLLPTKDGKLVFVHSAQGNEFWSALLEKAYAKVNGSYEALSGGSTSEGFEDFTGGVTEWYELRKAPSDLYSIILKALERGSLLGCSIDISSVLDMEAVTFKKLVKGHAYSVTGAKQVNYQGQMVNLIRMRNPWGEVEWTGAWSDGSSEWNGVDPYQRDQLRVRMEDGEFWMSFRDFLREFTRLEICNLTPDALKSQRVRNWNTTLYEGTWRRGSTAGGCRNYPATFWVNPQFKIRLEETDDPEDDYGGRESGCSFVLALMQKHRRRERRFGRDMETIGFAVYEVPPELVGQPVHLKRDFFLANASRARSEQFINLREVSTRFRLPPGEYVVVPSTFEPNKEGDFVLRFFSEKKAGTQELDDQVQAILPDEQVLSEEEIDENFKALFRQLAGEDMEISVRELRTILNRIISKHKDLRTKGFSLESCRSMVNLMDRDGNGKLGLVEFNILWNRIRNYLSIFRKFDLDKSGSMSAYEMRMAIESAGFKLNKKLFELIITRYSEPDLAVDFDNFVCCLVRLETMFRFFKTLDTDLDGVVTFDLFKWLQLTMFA
# Sequence (P04574 whole entry partner): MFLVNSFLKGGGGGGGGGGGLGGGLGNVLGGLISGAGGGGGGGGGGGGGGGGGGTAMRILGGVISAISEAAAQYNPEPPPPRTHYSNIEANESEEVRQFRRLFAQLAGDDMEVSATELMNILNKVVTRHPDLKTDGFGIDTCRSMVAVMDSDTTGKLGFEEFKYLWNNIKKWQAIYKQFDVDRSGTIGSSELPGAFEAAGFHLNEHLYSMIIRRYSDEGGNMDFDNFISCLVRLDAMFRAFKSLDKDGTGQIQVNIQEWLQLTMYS
# test.description: Calpain inhibition kinetics studies (Suc-LLVY-AMC substrate)
# Assay type: biochemical
# experimental.setup: ki/Ki calculated relative to E-64
readout.name: rel Calpain1
Could you respond with only the numeric value?

INSERT INTO assay_data (compound, measured_on, readout_name, readout_value) VALUES
  ('O=C(NCc1cn(-c2ccc(F)cc2)nn1)[C@H](Cc1cscn1)NC(=O)[C@H]1O[C@@H]1C(=O)O', 'Full length porcine calpain (Sus scrofa (Pig), UniProt P35750)', 'rel Calpain1', 1.1),
  ('CC(C)C[C@H](NC(=O)C1O[C@@H]1C(=O)O)C(=O)NCCCCNC(=N)N (some centres unmarked) [Compound E64, reference compound]', 'Full length porcine calpain (Sus scrofa (Pig), UniProt P35750)', 'rel Calpain1', 1),
  ('O=C(O)C1OC1C(=O)N[C@@H](Cc1cscn1)C(=O)Nc1nc(-c2ccc(F)cc2)cs1 (stereo in doubt)', 'Full length porcine calpain (Sus scrofa (Pig), UniProt P35750)', 'rel Calpain1', 0.98),
  ('CC(C)C[C@H](NC(=O)[C@H]1O[C@@H]1C(=O)O)C(=O)Nc1nc(-c2ccc(F)cc2)cs1 [Compound 24a]', 'Full length porcine calpain (Sus scrofa (Pig), UniProt P35750)', 'rel Calpain1', 0.91);

Exercise: Full length porcine calpain (Sus scrofa (Pig), UniProt P35750) / rel Calpain1 / C#Cc1ccc(-c2csc(NC(=O)[C@H](Cc3cscn3)NC(=O)[C@H]3O[C@@H]3C(=O)O)n2)cc1 : value?
Solution: 1.3

* * *

# measured.on: full-length human Cal1 (Homo sapiens (Human))
# test.description: Calpain inhibition FRET assay
# Format: biochemical
# experimental.setup: Cal1, values stated in text; read-out: IC50
pIC50: −log10 of the molar value.
This section presents compounds with their documented pIC50 values.

INSERT INTO measurements (compound, readout_name, readout_value) VALUES
  ('O=C(O)C1OC1C(=O)N[C@@H](Cc1cscn1)C(=O)Nc1nc(-c2ccc(F)cc2)cs1 (stereo in doubt)', 'pIC50', '~7.00');

Query compound follows.
Exercise: What value of pIC50 has been reported for the following compound? O=C(Nc1nc(-c2ccc(F)cc2)cs1)C(Cc1cnc[nH]1)NC(=O)[C@H]1O[C@@H]1C(=O)O (some centres unmarked) [Compound 30a]
Solution: ~7.00

The reported numbers originate from patent US9403843B2.
